The reported measurements were obtained from patent US20240116985A1.

Recorded pIC50 by entry
System tested: beta-catenin/TCF4 engagement (Homo sapiens, UniProt P35222)
Construct: expressed in transfected cells; host or cells: HEK293
Sequence (P35222 whole entry): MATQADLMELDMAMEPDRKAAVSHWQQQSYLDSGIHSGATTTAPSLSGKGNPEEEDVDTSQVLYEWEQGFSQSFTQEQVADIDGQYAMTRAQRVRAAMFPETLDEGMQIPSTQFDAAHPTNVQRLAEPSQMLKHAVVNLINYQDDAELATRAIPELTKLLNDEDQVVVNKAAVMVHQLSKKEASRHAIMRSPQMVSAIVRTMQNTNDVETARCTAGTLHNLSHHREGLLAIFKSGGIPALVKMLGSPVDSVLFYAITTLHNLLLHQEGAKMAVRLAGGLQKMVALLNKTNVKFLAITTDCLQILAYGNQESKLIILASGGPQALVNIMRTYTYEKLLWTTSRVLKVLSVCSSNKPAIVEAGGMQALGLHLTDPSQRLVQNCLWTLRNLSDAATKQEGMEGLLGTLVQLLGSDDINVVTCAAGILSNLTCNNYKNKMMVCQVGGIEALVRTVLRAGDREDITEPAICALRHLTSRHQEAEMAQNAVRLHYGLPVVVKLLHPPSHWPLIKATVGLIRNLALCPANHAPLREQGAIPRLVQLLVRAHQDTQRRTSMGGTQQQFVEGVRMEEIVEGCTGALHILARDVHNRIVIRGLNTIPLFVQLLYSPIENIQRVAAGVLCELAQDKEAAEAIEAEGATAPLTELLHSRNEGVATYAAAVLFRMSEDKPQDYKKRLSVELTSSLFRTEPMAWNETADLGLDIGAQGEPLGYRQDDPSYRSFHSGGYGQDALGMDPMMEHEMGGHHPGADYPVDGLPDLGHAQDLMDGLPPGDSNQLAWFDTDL
Measurement protocol: Nano-BRET target engagement assay (B-cat-Halo & TCF4-Luc in HEK293 cells)
Type: cell-based
Condition details: absolute IC50; read-out: NanoBRET Abs IC50
Kindly note that pIC50 refers to -log10 of the concentration in mol/L and answer with the value alone.

Recorded results for 4 molecules are shown here.
Molecule	System tested	pIC50
CC(=O)N1CCC[C@]12CC=CCCCC1(CCCC=CCCCOC(=O)N3CC[C@@](C(=O)N[C@@H](Cc4ccccc4)C(=O)N[C@@H](Cc4csc5ccccc45)C(=O)N[C@@H](CO)C(N)=O)(C3)NC(=O)[C@H](CO)NC(=O)[C@H](Cc3ccccc3)NC(=O)[C@H](C)NC(=O)[C@H](C)NC(=O)[C@H](CC(=O)O)NC(=O)[C@H](CC(=O)O)NC1=O)NC(=O)[C@H](CC(C)(C)C)NC(=O)[C@H](CC(=O)O)NC2=O (stereo partly shown)	beta-catenin/TCF4 engagement (Homo sapiens, UniProt P35222)	5.05
CC(=O)N1CCC[C@]12CC=CCCCC1(CCCC=CCCCOC(=O)N3CC[C@@](C(=O)N[C@@H](Cc4ccsc4)C(=O)N[C@@H](Cc4csc5ccccc45)C(=O)N[C@@H](C)C(N)=O)(C3)NC(=O)[C@H](CC(C)C)NC(=O)[C@H](Cc3ccc(F)cc3)NC(=O)[C@H](C)NC(=O)[C@H](C)NC(=O)[C@H](Cc3cccc(C(=O)O)c3)NC(=O)[C@H](CC(=O)O)NC1=O)NC(=O)[C@H](CC(C)(C)C)NC(=O)[C@H](CC(=O)O)NC2=O (stereo partly shown)	beta-catenin/TCF4 engagement (Homo sapiens, UniProt P35222)	5.43
CC(=O)N1CCC[C@]12CC=CCCCC1(CCCC=CCCCOC(=O)N3CC[C@@](C(=O)N[C@@H](Cc4ccccc4Cl)C(=O)N[C@@H](Cc4csc5ccccc45)C(=O)N[C@@H](CO)C(N)=O)(C3)NC(=O)[C@H](CO)NC(=O)[C@H](Cc3ccccc3)NC(=O)[C@H](C)NC(=O)[C@H](C)NC(=O)[C@H](CC(=O)O)NC(=O)[C@H](CC(=O)O)NC1=O)NC(=O)[C@H](CC(C)(C)C)NC(=O)[C@H](CC(=O)O)NC2=O (stereo partly shown)	beta-catenin/TCF4 engagement (Homo sapiens, UniProt P35222)	5.02
CC[C@H](C)[C@@H]1NC(=O)[C@H](CC(=O)O)NC(=O)[C@]2(CC=CCCCC3(CCCC=CCCCCCC[C@@](C)(C(=O)N[C@@H](Cc4ccccc4)C(=O)N[C@@H](Cc4csc5ccccc45)C(=O)N[C@@H](CCC(N)=O)C(N)=O)NC(=O)[C@H](CCC(N)=O)NC(=O)[C@H](Cc4ccccc4)NC(=O)[C@H](C)NC(=O)[C@H](CCC(N)=O)NC(=O)[C@H](CCC(=O)O)NC(=O)[C@H](CC(=O)O)NC3=O)NC1=O)CCCN2C(C)=O (stereo partly shown)	beta-catenin/TCF4 engagement (Homo sapiens, UniProt P35222)	4.82

Ask: Kindly indicate its recorded pIC50. Item: CC(=O)N1CCC[C@]12CC=CCCCC1(CCCC=CCCCOC(=O)N3CC[C@@](C(=O)N[C@@H](Cc4ccccc4Cl)C(=O)N[C@@H](Cc4csc5ccccc45)C(=O)N[C@@H](CC(C)C)C(N)=O)(C3)NC(=O)[C@H](CO)NC(=O)[C@H](Cc3ccccc3)NC(=O)[C@H](C)NC(=O)[C@H](C)NC(=O)[C@H](CC(=O)O)NC(=O)[C@H](CC(=O)O)NC1=O)NC(=O)[C@H](CC1CCCCC1)NC(=O)[C@H](CC(=O)O)NC2=O (stereo partly shown)
Reply: 4.70

Ask: Kindly indicate its recorded pIC50. Item: CC(=O)N1CCC[C@]12CC=CCCCC1(CCCC=CCCCOC(=O)N3CC[C@@](C(=O)N[C@@H](Cc4ccccc4Cl)C(=O)N[C@@H](Cc4csc5ccccc45)C(=O)N[C@@H](CCC(N)=O)C(N)=O)(C3)NC(=O)[C@H](CO)NC(=O)[C@H](Cc3ccccc3)NC(=O)[C@H](C)NC(=O)[C@H](CC(C)C)NC(=O)[C@H](CC(=O)O)NC(=O)[C@H](CC(=O)O)NC1=O)NC(=O)[C@H](CC1CCCCC1)NC(=O)[C@H](CC(=O)O)NC2=O (stereo partly shown)
Reply: 4.68
